src = paper PMC5540273

%Inh values, listed per item
# System: PRKCQ
# assay_context: concentration: 1 μM, replicates: in singlicate; n = 1;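 further: KINOMEscan kinase panel screen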

>  <molecule>
O=c1cc(N2CCOCC2)nc2n(Cc3cccc(F)c3)ccn12

>  <%Inh>
11%

$$$$
>  <molecule>
O=c1cc(N2CCOCC2)nc2n(Cc3cccc(Cl)c3Cl)c(C3CC3)nn12

>  <%Inh>
0%

$$$$
>  <molecule>
NCC(NC(=O)c1cc(-c2cn[nH]c2)c(-c2ccnc3[nH]ccc23)s1)c1ccccc1.O=C(O)C(F)(F)F.O=C(O)C(F)(F)F (centres unmarked)

>  <%Inh>
90.3%

$$$$
>  <molecule>
CCc1nc(-c2cccc(C)c2)c(-c2ccnc(NCc3ccccc3)c2)s1

>  <%Inh>
31%

$$$$
>  <molecule>
COc1ccc(Nc2nccc(N3CCC(NC(=O)Nc4cccc(C(C)=O)c4)C3)n2)cc1 (centres unmarked)

>  <%Inh>
18%

$$$$
>  <molecule>
Cn1ccc2ncnc(Oc3ccc(NC(=O)Nc4ccncc4)c(Cl)c3)c21

>  <%Inh>
0%

$$$$
>  <molecule>
Cc1ccc(C(=O)NCC(N)=O)cc1-n1c(C)cc(OCc2ccc(F)cc2F)c(Br)c1=O

>  <%Inh>
26%

$$$$
>  <molecule>
Cc1nnc(-c2ccc(C)c(-c3ccc(C(=O)Nc4ccc(NS(C)(=O)=O)cc4)cc3)c2)o1

>  <%Inh>
0%

$$$$

====

# System: BRSK1
# assay_context: concentration: 1 μM, replicates: in singlicate; n = 1
metric_name: %Inh (%)

>  <compound>
Fc1ccc(-c2nn3c(OCC(F)(F)F)cccc3c2-c2ccncc2)cc1 [GW514784]

>  <unit_annotation>
%

>  <measured_result>
0

$$$$
>  <compound>
Cc1ccc(NC(=O)c2ccnc(N3CCN(C)CC3)c2)cc1-c1ccc(C(=O)NCC2CC2)cc1 [GW775604]

>  <unit_annotation>
%

>  <measured_result>
0

$$$$
>  <compound>
O=c1cc(N2CCOCC2)nc2n(Cc3cccc(C(F)(F)F)c3)ccn12 [GSK2297543]

>  <unit_annotation>
%

>  <measured_result>
0

$$$$
>  <compound>
COCCNC(=O)c1ccc(-c2cc(C(=O)NC3CC3)cc(F)c2C)cc1 [GW868318]

>  <unit_annotation>
%

>  <measured_result>
0

$$$$
>  <compound>
CCCCCc1nc2c(N)ncnc2n1CCCCC [SKF-97255]

>  <unit_annotation>
%

>  <measured_result>
0

$$$$
>  <compound>
Cc1cccc(-c2nc(Nc3ccc4ncsc4c3)c3ccccc3n2)n1 [GW867588]

>  <unit_annotation>
%

>  <measured_result>
0

$$$$
>  <compound>
CCn1cnc2c(N)ncnc21 [GW345098]

>  <unit_annotation>
%

>  <measured_result>
5

$$$$
>  <compound>
COc1ccc(Nc2ncc(C#N)c(Nc3ccccc3C(N)=O)n2)cc1N1CCN(C)CC1.Cl [GSK1558669]

>  <unit_annotation>
%

>  <measured_result>
90.9

$$$$
>  <compound>
CSc1ccc(-c2cc3ncnc(SCC(=O)O)c3s2)cc1

>  <unit_annotation>
%

>  <measured_result>
6

$$$$

====

# Tested on: HIPK3
# assay_context: concentration: 1 μM, replicates: in singlicate; n = 1
Given measured %Inh, output t if it is greater than or equal to 20% and f if not.

>  <compound>
COc1ccc(Nc2ncc(C#N)c(Nc3ccccc3C(N)=O)n2)cc1N1CCN(C)CC1.Cl [GSK1558669]

>  <category_label>
t

$$$$
>  <compound>
c1ccc(-c2cc(-c3c[nH]nc3-c3ccccn3)ccn2)cc1 [GW576604]

>  <category_label>
f

$$$$
>  <compound>
c1ccc(-c2n[nH]cc2-c2ccnc3ccccc23)nc1 [GW271431]

>  <category_label>
t

$$$$
>  <compound>
Cl.Oc1cccc(Nc2ccnc3cc(-c4ccncc4)ccc23)c1 [GW494601]

>  <category_label>
f

$$$$
>  <compound>
CN1c2ccc(NCc3ccc(F)cc3)cc2-c2c(cnn2C)S1(=O)=O

>  <category_label>
f

$$$$
>  <compound>
COc1ccc(COc2cc(-n3cnc4ccccc43)sc2C(N)=O)cc1 [GSK1024304]

>  <category_label>
t

$$$$
>  <compound>
Cc1nnc(-c2ccc3occ(-c4ccc(C(C)O)cc4)c3c2)o1 (stereo not shown)

>  <category_label>
t

$$$$
>  <compound>
CSc1ccc(-c2cc3ncnc(SCC(=O)O)c3s2)cc1

>  <category_label>
t

$$$$
>  <compound>
COc1cc(Nc2nccc(N3CCC(NC(=O)c4cccc(NC(C)=O)c4)C3)n2)cc(OC)c1OC (stereo not shown) [GSK1379754]

>  <category_label>
f

$$$$
>  <compound>
[2H]C([2H])(c1cccc(C(F)(F)F)c1C)n1ccn2c(=O)nc(N3CCOCC3)cc12 [GSK2336394]

>  <category_label>
f

$$$$
>  <compound>
CCc1nc(-c2cccc(C)c2)c(-c2ccnc(NCc3ccccc3)c2)s1

>  <category_label>
f

$$$$
>  <compound>
O=C(NCCNc1ccnc(Nc2ccc(F)cc2)n1)c1cc2ccccc2s1 [GSK1379874]

>  <category_label>
f

$$$$
>  <compound>
Fc1ccc(-c2ncn(CCCN3CCOCC3)c2-c2ccccn2)cc1 [SB-211742]

>  <category_label>
f

$$$$
>  <compound>
COc1cc2ncn(-c3cc(OCc4sccc4Cl)c(C(N)=O)s3)c2cc1OC [GSK448459]

>  <category_label>
t

$$$$
>  <compound>
O=C(Nc1n[nH]c2cc(-c3cccc(F)c3)ccc12)C1CC1 [SB-735464]

>  <category_label>
t

$$$$
>  <compound>
Nc1nccc(-c2c(-c3ccc(F)cc3)ncn2C2CCN(CC(F)(F)F)CC2)n1 [SB-236560]

>  <category_label>
f

$$$$
>  <compound>
Fc1ccc(-c2nn3c(OCC(F)(F)F)cccc3c2-c2ccncc2)cc1 [GW514784]

>  <category_label>
f

$$$$
>  <compound>
O=C(NCCNc1ccnc(Nc2ccc(F)cc2)n1)Nc1ccccc1F [GSK1379880]

>  <category_label>
f

$$$$
>  <compound>
O=c1cc(N2CCOCC2)nc2n(Cc3cccc(Cl)c3Cl)c(C3CC3)nn12 [GSK2358994]

>  <category_label>
f

$$$$
